Tested on: mRNA
run_description: mRNA encapsulation (modified Quant-iT RiboGreen assay)
Format: physicochemical
assay_conditions: mRNA; formulation recipe R5
Non-standard residues stand in square brackets, D forms with d. Residues, ends and D or L forms follow the SMILES beside them. *: point of attachment. Gly(N-(3-decanoyloxypropyl)) = CCCCCCCCCC(=O)OCCCNCC(=O)O; N(2-decanoyloxyethyl)Gly = CCCCCCCCCC(=O)OCCNCC(=O)O; Gly(N-3-morpholinopropyl) = O=C(O)CNCCCN1CCOCC1; N(2-ethylhexyl)Gly = CCCCC(CC)CNCC(=O)O; N(CH(CH2OH)2)Gly = O=C(O)CNC(CO)CO; For = O=C*
A collection of molecules and their measured % Encapsulation
# unit: % | format: bare number

molecule | target_desc | % Encapsulation (%)
CCCCCCCCCC(=O)OCCN(CC(N)=O)C(=O)CN(CCOC(=O)CCCCCCCCC)C(=O)CN(CC(CC)CCCC)C(=O)CN(CCOC(=O)CCCCCCCCC)C(=O)CN(CCOC(=O)CCCCCCCCC)C(=O)CN(CC(CC)CCCC)C(=O)CNC(CO)CO (stereo not drawn) [Compound 105] (H-[N(CH(CH2OH)2)Gly][N(2-ethylhexyl)Gly][N(2-decanoyloxyethyl)Gly][N(2-decanoyloxyethyl)Gly][N(2-ethylhexyl)Gly][N(2-decanoyloxyethyl)Gly][N(2-decanoyloxyethyl)Gly]-NH2) | mRNA | 94.6
CCCCCCCCCC(=O)OCCCN(C=O)CC(=O)N(CCCOC(=O)CCCCCCCCC)CC(=O)N(CC(=O)N(CCCN1CCOCC1)CC(=O)N(CCCOC(=O)CCCCCCCCC)CC(=O)N(CCCOC(=O)CCCCCCCCC)CC(=O)N(CC(N)=O)CC(CC)CCCC)CC(CC)CCCC (stereo not drawn) [Compound 112] (For-[Gly(N-(3-decanoyloxypropyl))][Gly(N-(3-decanoyloxypropyl))][N(2-ethylhexyl)Gly][Gly(N-3-morpholinopropyl)][Gly(N-(3-decanoyloxypropyl))][Gly(N-(3-decanoyloxypropyl))][N(2-ethylhexyl)Gly]-NH2) | mRNA | 71.6

INPUT: Query: % Encapsulation; subject: CCCCCCCCCC(=O)OCCN(CC(=O)N(CCOC(=O)CCCCCCCCC)CC(=O)N(CC(=O)N(CCOC(=O)CCCCCCCCC)CC(=O)N(CCOC(=O)CCCCCCCCC)CC(=O)N(CC(N)=O)CC(CC)CCCC)CC(CC)CCCC)C(=O)CNC(CO)CO (stereo not drawn) [Compound 16] (H-[N(CH(CH2OH)2)Gly][N(2-decanoyloxyethyl)Gly][N(2-decanoyloxyethyl)Gly][N(2-ethylhexyl)Gly][N(2-decanoyloxyethyl)Gly][N(2-decanoyloxyethyl)Gly][N(2-ethylhexyl)Gly]-NH2)
OUTPUT: 92.2
